- experiment.notes: cAMP Responsive Elements (CRE) small molecule antagonists, cell-based qHTS assay (AID 1963591)
- protocol.conditions: CRE-bla HEK293T, beta-lactamase FRET ratio; series mostly up to 92.4 µM
Results filed as inconclusive are left out. Activity calls are given as the source filed them. Calls follow the shape of the dose curve; as a rule, active = well fitted inhibition curve with a large enough effect in the signal ratio in the repeat runs (not every such curve was filed as active); inconclusive = weak or mixed curves, or effect the other way; inactive = flat fitted curve, though single readings scatter; the % refers to the signal ratio.
Outcome codes: active, inactive

compound | answer.label
COC(=O)c1ccccc1S(=O)(=O)NC(=O)Nc1nc(C)cc(C)n1 | inactive
CC(N)=S | inactive
COc1cc(C[C@@H](C)N)c(OC)cc1C | inactive
COc1cc(CC(C)N)cc(OC)c1OC (stereo not drawn) | inactive
CCC[CH2][Sn]([CH2]CCC)([O]C(C)=O)[O]C(C)=O | inactive
CCCCN(N=O)C(=N)N[N+](=O)[O-] | inactive
CCN(CC)CCOC(=O)C(O)(c1ccccc1)c1ccccc1 | inactive
O=[N+]([O-])c1cc(Cl)c(Cl)cc1Cl | inactive
CC(Cc1ccc(OCC(=O)O)cc1)NCC(O)c1csc(C(F)(F)F)n1 (stereo not drawn) | inactive
CCCCN(CCCC)C(=S)[S-].CCCCN(CCCC)C(=S)[S-].[Ni+2] | inactive
CC(C)CP(=S)(S)CC(C)C | inactive
COC(=O)C1(O)c2ccccc2-c2ccccc21 | inactive
CN1C(=O)C(O)N=C(c2ccccc2)c2cc(Cl)ccc21 (stereo not drawn) | inactive
C[C@H](N)[C@H](O)c1ccc(O)c(O)c1 | inactive
CN(CCCC(O)c1cccnc1)N=O (stereo not drawn) | inactive
CCCCCCCc1ccc(O)cc1 | active
O=C(Cl)C(Cl)(Cl)Cl | inactive
NCCCNCCCN | inactive
COC(=O)c1ccccc1S(=O)(=O)NC(=O)N(C)c1nc(C)nc(OC)n1 | inactive
CNC(C)Cc1ccc2c(c1)OCO2 (stereo not drawn) | inactive
Nc1ccc([N+](=O)[O-])cc1Cl | inactive
CC(C)(C)C(O)C(Oc1ccc(-c2ccccc2)cc1)n1cncn1 (stereo not drawn) | inactive
O=CC=O | inactive
CCSC(=O)N(CC)C1CCCCC1 | inactive
CC1(C)CON(Cc2ccccc2Cl)C1=O | inactive
CCCCCOC(=O)c1ccccc1C(=O)OCCCCC | inactive
O=C1CN=C(c2ccccc2)c2cc([N+](=O)[O-])ccc2N1 | inactive
Clc1cccc(N2CCNCC2)c1 | inactive
CCN1CCCC1CNC(=O)C(O)(c1ccccc1)c1ccccc1 (stereo not drawn) | inactive
CN1[C@@H]2CC[C@H]1CC(O)C2 (stereo partly drawn) | inactive
O=C(NC(O)C(Cl)(Cl)Cl)NC(O)C(Cl)(Cl)Cl (stereo not drawn) | inactive
COP(=S)(OC)Oc1ccc([N+](=O)[O-])cc1Cl | inactive
CCOc1cc(OP(=S)(OC)OC)nc(CC)n1 | inactive
CCOCCOC(C)=O | active
NC(=O)C(Cl)(Cl)Cl | inactive
CCCN(CC)CC1COC2(CCC(C(C)(C)C)CC2)O1 (stereo not drawn) | inactive
[CH3][Hg][Cl] | inactive
ClP(Cl)(Cl)(Cl)Cl | inactive
COCC(C)N(C(=O)CCl)c1c(C)csc1C (stereo not drawn) | inactive
CON(C)C(=O)Nc1ccc(Br)c(Cl)c1 | inactive
ClCc1cccc(Cl)c1 | inactive
CCC1(c2ccccc2)C(=O)N(COC)C(=O)N(COC)C1=O | inactive
Clc1cccc2ccccc12 | inactive
COc1ccc2c(c1OC)CN1CCc3cc4c(cc3C1C2)OCO4 (stereo not drawn) | inactive
CC(C)[N+](=O)[O-] | inactive
Clc1ccccc1 | inactive
O=C(CCCCl)c1ccc(F)cc1 | inactive
COc1cc(CC(C)N)cc2c1OCO2 (stereo not drawn) | inactive
CCC(C)(C)O | inactive
Cc1cc(OC(=O)N(C)C)nn1C(=O)N(C)C | inactive
O=C(NC(=O)c1c(F)cccc1F)Nc1cc(Cl)c(OC(F)(F)C(F)F)c(Cl)c1 | inactive
BrCC1CO1 (stereo not drawn) | inactive
COc1ccc(Cc2nccc3cc(OC)c(OC)cc23)cc1OC | inactive
N=C(N)[Se] | inactive
COC(=O)c1cc(Oc2ccc(Cl)cc2Cl)ccc1[N+](=O)[O-] | inactive
Oc1ccc(I)cc1 | inactive
COc1ncc(F)c2nc(S(=O)(=O)Nc3c(F)cccc3F)nn12 | inactive
O=NN(CCO)CCO | inactive
